Recorded TGI for the following compounds
Tested on: SN12C renal
assayInfo: NCI tumour cell line growth inhibition, 48 h
*1 amine or outer side, *2 acyl side, *3 side chain or, on linkers, in order; H or OH if unused. Where a SMILES comes first, the peptide text is derived from it. Bridges are numbered along the chain shown (N, C = ends). [ ]: non-standard residue; d: D form. The star is where a group is joined. Phe(3-Me) = Cc1cccc(C[C@H](N)C(=O)O)c1; NH(4-Cl-2-F-phenyl) = Fc1cc(Cl)ccc1N*; Pro(4R-Me) = C[C@H]1CN[C@H](C(=O)O)C1; Propanoyl(3-NMe2) = CN(C)CCC(=O)*; Hyp = O=C(O)[C@@H]1C[C@@H](O)CN1; aThr = C[C@H](O)[C@H](N)C(=O)O; Pip = O=C(O)[C@@H]1CCCCN1; CO = O=C([*:1])[*:2]

Please review the following examples before continuing.
compound	readoutKind	result
CC[C@@]1(O)C(=O)OCc2c1cc1n(c2=O)Cc2c-1nc1ccccc1c2/C=N/OC(C)(C)C	TGI	4.75 µM
CCN(CC)CC(O)C1CCC(c2ccccc2)CC1 (configuration not stated)	TGI	> 100 µM
CCNCCCCNCC	TGI	> 3750 µM
Cc1cccc(C[C@H](NC(=O)Nc2ccc(Cl)cc2F)C(=O)N[C@@H]2C(=O)N3C[C@H](OC(=O)CCN(C)C)C[C@H]3C(=O)N3CCCC[C@H]3C(=O)N[C@@H](C)C(=O)N3C[C@H](C)C[C@H]3C(=O)O[C@H]2C)c1 ({NH(4-Cl-2-F-phenyl)-CO}-[Phe(3-Me)][aThr][Hyp](Propanoyl(3-NMe2))[Pip]A[Pro(4R-Me)]; ester 2-C)	TGI	2.18 µM
CCOP(=O)(OCC)/C(C#N)=C/c1c(C)[nH]c2ccccc12	TGI	> 100 µM

Q. Query TGI for `CC(=O)Nc1sc2c(c1-c1nc3ccccc3s1)CNC2`
A. 15.5 µM

Q. Query TGI for `Cc1cc2c(c(N)c1C)C(=O)c1ccccc1C2=O`
A. > 100 µM

----------
Recorded TGI for the following molecules
Test system: DU-145 prostate
assayInfo: NCI tumour cell line growth inhibition, 48 h

Please review the following examples before continuing.
In [3]: df
Out[3]:
                                   molecule    result
0  CCCCCC(/C=N/N)C(O)(C(F)(F)F)C(F)(F)F (stereo unspecified)   6.09 µM
1  CCN(CC)CC(O)C1CCC(c2ccccc2)CC1 (stereo unspecified)  > 100 µM
2     CC(=O)c1ccc(NCN2C(=O)c3ccccc3C2=O)cc1  > 100 µM
3  O=[N+]([O-])c1ccc(-c2cn(-c3ccc(Cl)cc3)cn2)cc1  > 100 µM
4          CC(=O)Nc1ccc(-c2nc3ccccc3s2)cc1O  > 100 µM
5                  Cc1nc2cc(N)c(Cl)cc2[nH]1  > 100 µM
6        Cc1n[nH]c(=O)n1N1C(=O)c2ccccc2C1=O  > 100 µM
7  CC1=CC2C(C(C)C)CC1C1C(=O)OC(=O)C21 (stereo unspecified)  > 100 µM
8  CC[C@]12CCCN3CC[C@]4(C(=C(C(=O)OC)C1)Nc1ccccc14)[C@@H]32   35.2 µM
9  O=C1C(Cl)=C(Nc2cccc(O)c2)C(=O)N1c1cccc(Cl)c1Cl     48 µM

Consider the record given below.
Q. Fill in: TGI on DU-145 prostate, entry CC1Cc2cc(O)ccc2C2[C@@H]1C1CC[C@H](O)[C@@]1(C)C[C@@H]2O[N+](=O)[O-] (stereo partly specified)
A. 76.3 µM
